- Test system: plasma cGMP
- Assay info: In vivo monkey studies, plasma cGMP ELISA
- Set-up: species or system male cynomolgus monkeys
- Condition info: dose 100 nmol/kg; 48 h postdose; monkey plasma
Numbered stars: 1 amine (or outer) side, 2 acyl side, 3 side chain; on linkers, the order of the positions; unused ones are H or OH. Bridge positions count the residues as written; N and C are the ends. Square brackets hold non-standard residues; d marks the D form. * marks the point of attachment. PEG24 = NCCOCCOCCOCCOCCOCCOCCOCCOCCOCCOCCOCCOCCOCCOCCOCCOCCOCCOCCOCCOCCOCCOCCOCCOCCC(=O)O; C20 diacid = O=C(O)CCCCCCCCCCCCCCCCCCC(=O)*; γGlu = O=C(O)[C@H](CCC(=O)[*:2])N[*:1]; 4Pal = N[C@@H](Cc1ccncc1)C(=O)O; CH2 = C([*:1])[*:2]; βAla = NCCC(=O)O
Reported metric: Net cGMP (nM) Change from Baseline 48 h
Only the number, expressed in nM, is required.

# count of solved cases: 3
substance="(BFAEN2-βAla)-EKEKEKG-PEG24-EK-βAla-RSS[CFGKRIDRIGHQSGLGC]PSFRHGSPSSGAPPPS-NH2 (EKXRSSCFGKRIDRIGHQSGLGCPSFRHGSPSSGAPPPS; BFAEN2-βAla, PEG24, C-terminal amide; MOD_RES 1 N-terminal modified with (BFAEN2-beta-Ala)-EKEKEKG-PEG24-; wherein BFAEN2 is Bifurcated Fatty Acid Enantiomer 2; SITE 3 X at position 3 is beta-Alanine; MOD_RES 39 Amidation; DISULFID 7..23 Intrachain thioacetal bond) [Example 144]" reported_metric="Net cGMP (nM) Change from Baseline 48 h" readout_number=7.11
substance="{C20 diacid-γGlu}-EKEKEKG[PEG24]EK[βAla]RSSCFGKRIDRIGHYSGLGCPSFRHGSPSSGAPPPS-NH2 (linker 15-31 via CH2) [Example 106]" reported_metric="Net cGMP (nM) Change from Baseline 48 h" readout_number=8.71
substance="{C20 diacid-γGlu}-EKEKEKGS[4Pal]RRSSCFGGRIGRIGHQSGLGCPSFRHGGPSSGAPPPS-NH2 (disulfide 14-30) [Example 29]" reported_metric="Net cGMP (nM) Change from Baseline 48 h" readout_number=21.75

Let us examine a further case.
Problem: Missing value: Net cGMP (nM) Change from Baseline 48 h, plasma cGMP, entry {C20 diacid-γGlu}-EKEKEKG[PEG24]S[4Pal]RRSSCFGGRIDRIGHQSGLGCPSFRHGGPSSGAPPPS-NH2 (linker 15-31 via CH2) [Example 61] . Fill in?
Result: 11.81

Just for reference, patent US20240174727A1 is where these values come from.
